assay: in vitro; conditions: human, HEK293T cells
Description: Cytotoxicity against HEK293T cells assessed as cell viability at 16.7 uM by CellTiter-Glo assay relative to control
Non-standard residues stand in square brackets, D forms with d. Residues, ends and D or L forms follow the SMILES beside them. *: point of attachment. X1 = O=C(OCCCS*)Oc1ccc2nc(C3=N[C@@H](C(=O)O)CS3)sc2c1; Mpa = O=C(O)CCS
Entries and their viability at 16.7 µM

# COMPOUND, VALUE MEASURED
data = [
    ("CC(C)C[C@H](NC(=O)[C@H](CCCCN)NC(=O)CCSSCCCOC(=O)Oc1ccc2nc(C3=N[C@@H](C(=O)O)CS3)sc2c1)C(=O)N[C@@H](Cc1ccccc1)C(=O)N[C@@H](CC(N)=O)C(=O)N[C@@H](CCCCN)C(=O)N[C@@H](CCC(N)=O)C(=O)N[C@@H](CCC(=O)O)C(=O)N[C@@H](Cc1c[nH]c2ccccc12)C(=O)N[C@H](C(=O)N[C@@H](CC(N)=O)C(N)=O)[C@@H](C)O ([Mpa](X1)KLFNKQEWTN-NH2)", "97.6%"),
]

Look up viability at 16.7 µM for this compound: CC(C)C[C@H](NC(=O)CCSSCCCOC(=O)Oc1ccc2nc(C3=N[C@@H](C(=O)O)CS3)sc2c1)C(=O)N[C@@H](CCCCN)C(=O)N[C@H](C(=O)N[C@@H](CCCNC(=N)N)C(=O)N[C@H](C(=O)N[C@@H](CC(C)C)C(=O)N[C@@H](CCCCN)C(=O)N[C@@H](CCCNC(=N)N)C(=O)N[C@@H](Cc1c[nH]c2ccccc12)C(=O)N[C@@H](CCCCN)C(N)=O)C(C)C)[C@@H](C)O ([Mpa](X1)LKTRVLKRWK-NH2) 79.1%

====

Entries and their viability at 16.7 µM
assay: in vitro; details: human, HEK293T cells
Non-standard residues stand in square brackets, D forms with d. Residues, ends and D or L forms follow the SMILES beside them. *: point of attachment. X1 = O=C(OCCCS*)Oc1ccc2nc(C3=N[C@@H](C(=O)O)CS3)sc2c1; Mpa = O=C(O)CCS
Write the answer as a number in %, unit excluded.

As a guide, the following entries are already answered.
# COMPOUND, OBSERVABLE, VALUE MEASURED
rows = [
    ("CC(C)C[C@H](NC(=O)[C@H](CCCCN)NC(=O)[C@H](Cc1c[nH]c2ccccc12)NC(=O)[C@H](CCCNC(=N)N)NC(=O)CCSSCCCOC(=O)Oc1ccc2nc(C3=N[C@@H](C(=O)O)CS3)sc2c1)C(=O)N[C@@H](Cc1ccccc1)C(=O)N[C@@H](CC(N)=O)C(=O)N[C@@H](CCCCN)C(=O)N[C@@H](CCC(N)=O)C(=O)N[C@@H](CCC(=O)O)C(=O)N[C@@H](Cc1c[nH]c2ccccc12)C(N)=O ([Mpa](X1)RWKLFNKQEW-NH2)", "viability at 16.7 µM", 92.8),
    ("CC(C)C[C@H](NC(=O)[C@H](CCCCN)NC(=O)[C@H](Cc1c[nH]c2ccccc12)NC(=O)CCSSCCCOC(=O)Oc1ccc2nc(C3=N[C@@H](C(=O)O)CS3)sc2c1)C(=O)N[C@@H](Cc1ccccc1)C(=O)N[C@@H](CC(N)=O)C(=O)N[C@@H](CCCCN)C(=O)N[C@@H](CCC(N)=O)C(=O)N[C@@H](CCC(=O)O)C(=O)N[C@@H](Cc1c[nH]c2ccccc12)C(=O)N[C@H](C(N)=O)[C@@H](C)O ([Mpa](X1)WKLFNKQEWT-NH2)", "viability at 16.7 µM", 104),
]

Now turn to the next compound.
Look up viability at 16.7 µM for this compound: CC(C)C[C@H](NC(=O)[C@H](CCCCN)NC(=O)[C@H](Cc1c[nH]c2ccccc12)NC(=O)[C@H](CCCNC(=N)N)NC(=O)[C@H](CCCCN)NC(=O)[C@H](CC(C)C)NC(=O)[C@@H](NC(=O)CCSSCCCOC(=O)Oc1ccc2nc(C3=N[C@@H](C(=O)O)CS3)sc2c1)C(C)C)C(=O)N[C@@H](Cc1ccccc1)C(=O)N[C@@H](CC(N)=O)C(=O)N[C@@H](CCCCN)C(N)=O ([Mpa](X1)VLKRWKLFNK-NH2) 99.6
